Assay: Potentiometric and spectrophotometric titrations (protonation constants, speciation)
Assay type: physicochemical
Details: 25 °C, NaCl 0.1 M; L + H^+ ⇌ HL (first protonation)
measured-metric: pK
Numbers only.

Known results for compounds:
compound-structure-string	pK
C/C(=N\NC(N)=S)c1cc2ccc(O)c(O)c2oc1=O	10.5
C/C(=N\NC(N)=S)c1cc2ccc(O)cc2oc1=O	10.5
C/C(=N\NC(N)=S)c1cc2ccccc2oc1=O	8.5
C/C(=N\NC(N)=S)c1cc2cc(O)ccc2oc1=O	10.2
C/C(=N\NC(N)=S)c1cc2cccc(O)c2oc1=O	10.4

# next compound below
Data request: What value of pK has been reported for the following compound? `C/C(=N\NC(N)=S)c1cc2cc(O)c(O)cc2oc1=O`
Data returned: 10.7

====

Hi there, I'd appreciate the recorded Logβ for every entry that follows.
Test: Potentiometric and spectrophotometric titrations (protonation constants, speciation)
Type: physicochemical
Details: 25 °C, NaCl 0.1 M; L + H^+ ⇌ HL (first protonation)
Experimental: Potentiometric titrations were performed in a thermostated vessel at 25 °C in 0.1 M ionic strength (NaCl) using a Mettler-Toledo Seven Compact pH/Ion-meter and equipped with a Mettler-Toledo InLab Micro Pro combined glass electrode with an integrated temperature probe. […] Protonation constants of the studied molecules were determined via spectrophotometric and potentiometric titrations. […] Potentiometric and spectrophotometric data were simultaneously analysed using the Hyperquad 2006 software package. […]

Solved entries:
compound-structure-string	Logβ
C/C(=N\NC(N)=S)c1cc2ccccc2oc1=O	8.46 (9)
C/C(=N\NC(N)=S)c1cc2cc(O)ccc2oc1=O	10.20 (8)
C/C(=N\NC(N)=S)c1cc2cc(O)c(O)cc2oc1=O	10.7 (1)
C/C(=N\NC(N)=S)c1cc2ccc(O)c(O)c2oc1=O	10.5 (2)
C/C(=N\NC(N)=S)c1cc2cccc(O)c2oc1=O	10.4 (1)

Data request: Would you mind telling me what Logβ value was observed for `C/C(=N\NC(N)=S)c1cc2ccc(O)cc2oc1=O` ?
Data returned: 10.5 (1)

====

Biological target: mushroom tyrosinase
Assay: Tyrosinase inhibition assay (L-DOPA, dopachrome at 492 nm; Lineweaver–Burk plots)
Settings: L-DOPA 0.5 mM, pH 6.8, 37 °C; mean ± SD, three experiments
Task for the reader: assign each of the following molecules its reported pIC50.
One number for each entry, as −log10 of the molar value.

Hi! Can you tell me pIC50 for each of these molecules?
1. C/C(=N\NC(N)=S)c1cc2ccc(O)c(O)c2oc1=O
2. C/C(=N\NC(N)=S)c1cc2cccc(O)c2oc1=O
3. C/C(=N\NC(N)=S)c1cc2cc(O)ccc2oc1=O

Data returned:
1: 5.39; 2: 5.24; 3: 4.85

Provide pIC50 values for the following items, in order.
1. C/C(=N\NC(N)=S)c1cc2ccccc2oc1=O
2. C/C(=N\NC(N)=S)c1cc2ccc(O)cc2oc1=O
3. C/C(=N\NC(N)=S)c1cc2cc(O)c(O)cc2oc1=O

Data returned:
[5.40, 5.30, 5.22]

====

Biological target: mushroom tyrosinase
Experiment: Tyrosinase inhibition assay (L-DOPA, dopachrome at 492 nm; Lineweaver–Burk plots)
Assay type: biochemical
Settings: L-DOPA substrate; secondary plot of slope; read-out: Ki (inhibitor binding with free enzyme)
Description: The inhibition of mushroom tyrosinase was evaluated as previously described with slight modifications. […] Then, L-DOPA solution (0.5 mM final) was added, and the reaction was monitored following the molecular absorbance at 492 nm that resulted from the formation of the dopachrome product. […] The inhibition mode was analysed using the Lineweaver–Burk plots.
Give measured Ki for each item. Keep answers brief.
Answers are plain numbers, in µM.

compound-structure-string	Ki [µM]
C/C(=N\NC(N)=S)c1cc2ccc(O)c(O)c2oc1=O	5.88

Here's the next entry for you.
Data request: Fill in: Ki of `C/C(=N\NC(N)=S)c1cc2ccccc2oc1=O` is ___
Data returned: 0.85

====

Assign melting point to each entry below.

Examples with their reported melting point follow.
compound-structure-string	result
C/C(=N\NC(N)=S)c1cc2ccc(O)c(O)c2oc1=O	228 to 230 °C (dec.)
C/C(=N\NC(N)=S)c1cc2cc(O)ccc2oc1=O	222 to 224 °C (dec.)

Would you mind giving melting point for every compound in the list below?
1. C/C(=N\NC(N)=S)c1cc2cccc(O)c2oc1=O
2. C/C(=N\NC(N)=S)c1cc2cc(O)c(O)cc2oc1=O

Data returned:
208 to 210 °C (dec.)
228 to 230 °C (dec.)

====

Assay: Potentiometric and spectrophotometric titrations (protonation constants, speciation)
Format: physicochemical
Conditions: 25 °C, NaCl 0.1 M; step to H4L
measured-metric: pK

molecule	pK
C/C(=N\NC(N)=S)c1cc2ccc(O)cc2oc1=O [T3]	3.4
C/C(=N\NC(N)=S)c1cc2cc(O)ccc2oc1=O [T2]	4.3
C/C(=N\NC(N)=S)c1cc2cccc(O)c2oc1=O [T4]	3.6
C/C(=N\NC(N)=S)c1cc2cc(O)c(O)cc2oc1=O [T5]	4.7

Data request: Entry under review: C/C(=N\NC(N)=S)c1cc2ccc(O)c(O)c2oc1=O [T6] . Reported pK?
Data returned: 4.4

====

Answer each item with its documented Logβ.
Assay: Potentiometric and spectrophotometric titrations (protonation constants, speciation)
Type: physicochemical
Settings: 25 °C, NaCl 0.1 M; L + 2H^+ ⇌ H2L

compound	Logβ
C/C(=N\NC(N)=S)c1cc2cccc(O)c2oc1=O [T4]	17.26 (1)
C/C(=N\NC(N)=S)c1cc2ccccc2oc1=O [T1]	13.47 (9)
C/C(=N\NC(N)=S)c1cc2cc(O)c(O)cc2oc1=O [T5]	18.46 (9)

Okay, here is my list. What is Logβ for each of these?
1. C/C(=N\NC(N)=S)c1cc2ccc(O)cc2oc1=O [T3]
2. C/C(=N\NC(N)=S)c1cc2cc(O)ccc2oc1=O [T2]
3. C/C(=N\NC(N)=S)c1cc2ccc(O)c(O)c2oc1=O [T6]

Data returned:
["17.6 (1)", "17.24 (6)", "19.3 (1)"]

====

Experiment: Potentiometric and spectrophotometric titrations (protonation constants, speciation)
Type: physicochemical
Conditions: 25 °C, NaCl 0.1 M; step to H3L
I'd be grateful if you could share measured pK for these entries.
One number for each entry.

Known pK results, listed for orientation:
compound-structure-string	pK
C/C(=N\NC(N)=S)c1cc2ccccc2oc1=O	4.0
C/C(=N\NC(N)=S)c1cc2cccc(O)c2oc1=O	5.7
C/C(=N\NC(N)=S)c1cc2ccc(O)cc2oc1=O	5.7
C/C(=N\NC(N)=S)c1cc2cc(O)ccc2oc1=O	5.4

// for each molecule below, give its pK
1. C/C(=N\NC(N)=S)c1cc2cc(O)c(O)cc2oc1=O
2. C/C(=N\NC(N)=S)c1cc2ccc(O)c(O)c2oc1=O

Data returned:
1: 6.3; 2: 5.8

====

Experiment: Potentiometric and spectrophotometric titrations (protonation constants, speciation)
Format: physicochemical
Conditions: 25 °C, NaCl 0.1 M; L + 3H^+ ⇌ H3L
measured-metric: Logβ

compound-structure-string	result
C/C(=N\NC(N)=S)c1cc2ccc(O)cc2oc1=O	23.26 (7)
C/C(=N\NC(N)=S)c1cc2ccccc2oc1=O	17.45 (8)
C/C(=N\NC(N)=S)c1cc2cccc(O)c2oc1=O	22.94 (5)

For every listed record, write down its Logβ.
1. C/C(=N\NC(N)=S)c1cc2cc(O)ccc2oc1=O
2. C/C(=N\NC(N)=S)c1cc2ccc(O)c(O)c2oc1=O
3. C/C(=N\NC(N)=S)c1cc2cc(O)c(O)cc2oc1=O

Data returned:
1. 22.4 (1)
2. 25.1 (1)
3. 24.76 (7)

====

Please provide measured Logβ for the entries that follow.
Experiment: Potentiometric and spectrophotometric titrations (protonation constants, speciation)
Type: physicochemical
Conditions: 25 °C, NaCl 0.1 M; L + 4H^+ ⇌ H4L
Protocol: Potentiometric titrations were performed in a thermostated vessel at 25 °C in 0.1 M ionic strength (NaCl) using a Mettler-Toledo Seven Compact pH/Ion-meter and equipped with a Mettler-Toledo InLab Micro Pro combined glass electrode with an integrated temperature probe. […] Protonation constants of the studied molecules were determined via spectrophotometric and potentiometric titrations. […] Potentiometric and spectrophotometric data were simultaneously analysed using the Hyperquad 2006 software package. […]

Dear reader, for each entry below, please note its Logβ.
1. C/C(=N\NC(N)=S)c1cc2ccc(O)c(O)c2oc1=O [T6]
2. C/C(=N\NC(N)=S)c1cc2ccc(O)cc2oc1=O [T3]
3. C/C(=N\NC(N)=S)c1cc2cc(O)ccc2oc1=O [T2]
4. C/C(=N\NC(N)=S)c1cc2cc(O)c(O)cc2oc1=O [T5]
5. C/C(=N\NC(N)=S)c1cc2cccc(O)c2oc1=O [T4]

Data returned:
1: 29.5 (1); 2: 26.7 (1); 3: 26.7 (1); 4: 29.50 (6); 5: 26.5 (2)

Data provenance is paper PMC9861830.
